Items are presented alongside their recorded MIC.
system: E. coli 901C; assay: Broth microdilution MIC in CAMHB; assay type: cell-based; conditions: Escherichia coli; E. coli 901C (hyper-permeable); MHB; read-out: Minimum Inhibitory Concentration, E. coli 901C
Quantity Measured: MIC

INSERT INTO measurements (compound, quantity_measured, measured) VALUES
  ('NCCN1CCN(C(=O)N[C@H](C(=O)N[C@H]2Cc3cccc(C(=O)O)c3OB2O)c2ccc(O)c(F)c2F)C(=O)C1=O (single isomer, unassigned)', 'MIC', '2 to 4 µg/mL'),
  ('CCN1CCN(C(=O)NC(C(=O)N[C@H]2Cc3cccc(C(=O)O)c3OB2O)c2ccc(O)c(N(S(C)(=O)=O)S(C)(=O)=O)c2)C(=O)C1=O (stereo partly drawn)', 'MIC', '< 0.25 µg/mL'),
  ('NCCCN1CCN(C(=O)NC(C(=O)N[C@H]2Cc3cccc(C(=O)O)c3OB2O)c2ccc(C(=O)O)cc2)C(=O)C1=O (stereo partly drawn)', 'MIC', '0.5 to 1 µg/mL'),
  ('CCN1CCN(C(=O)NC(C(=O)N[C@H]2Cc3cccc(C(=O)O)c3OB2O)c2ccc(C(=O)O)c(OC)c2)C(=O)C1=O (stereo partly drawn)', 'MIC', '2 to 4 µg/mL'),
  ('CCN1CCN(C(=O)N[C@H](C(=O)N[C@H]2Cc3cccc(C(=O)O)c3OB2O)c2ccc(C(=O)O)c(F)c2F)C(=O)C1=O (single isomer, unassigned)', 'MIC', '< 0.25 µg/mL'),
  ('CCN1CCN(C(=O)NC(C(=O)N[C@H]2Cc3cccc(C(=O)O)c3OB2O)c2cccc(O)c2)C(=O)C1=O (stereo partly drawn)', 'MIC', '< 0.25 µg/mL');

# credit: patent US20230114728A1
